tested on: PC-3 prostate; assay: NCI tumour cell line growth inhibition, 48 h; in the data active means GI50 below about 0.43 µM; inactive means the rest
Reply using exactly one outcome from y for active, n for inactive

These recorded examples may help you get a feel for the data.
COc1cc(Nc2ncccc2C(=O)NCc2cn(Cc3cccc(Oc4ccccc4)c3)nn2)cc(OC)c1    n
CC[As](CC)SC[C@H](C)C(=O)N1CCC[C@H]1C(=O)O    y
Oc1ccc(Nc2ncnc3c2sc2ncccc23)cc1    n
Cc1ccnc2[nH]c(-c3ccc4ccccc4c3)cc(=O)c12    n
S=C(Nc1ccc(Cl)cc1)Nc1ccc(-c2nc3ccccc3s2)cc1    n
COc1ccc(Sc2[nH]c(C(C)=O)c3ccccc23)cc1    n

Ask | Recorded call for COC(=O)c1ccc2c(c1)nc(NC(=O)c1ccccc1)n2CCCc1ccccc1 ?
Reply | n

Ask | Recorded call for N#Cc1c(N)nc(N2CCOCC2)c(C#N)c1-c1ccncc1 ?
Reply | n

Ask | Recorded call for COc1cccc(CC(C)=C(c2ccc(OCCN(C)C)cc2)c2ccc(OCCN(C)C)cc2)c1 ?
Reply | n

Ask | Recorded call for COc1cccc(F)c1C(=O)c1cnc(NC2CCN(S(C)(=O)=O)CC2)nc1N ?
Reply | n
